Hi there, I'd appreciate the recorded IC50 for every entry that follows.
MEASUREMENT_TARGET: human LTA4 hydrolase (Homo sapiens)
Construct: A human LTA4 hydrolase full-length cDNA clone (NM_000895) was purchased; His tag (own knowledge: pDEST17 adds an N-terminal 6xHis); made in house; host or cells: Escherichia coli BL21-AI
Sequence (P09960 1-611): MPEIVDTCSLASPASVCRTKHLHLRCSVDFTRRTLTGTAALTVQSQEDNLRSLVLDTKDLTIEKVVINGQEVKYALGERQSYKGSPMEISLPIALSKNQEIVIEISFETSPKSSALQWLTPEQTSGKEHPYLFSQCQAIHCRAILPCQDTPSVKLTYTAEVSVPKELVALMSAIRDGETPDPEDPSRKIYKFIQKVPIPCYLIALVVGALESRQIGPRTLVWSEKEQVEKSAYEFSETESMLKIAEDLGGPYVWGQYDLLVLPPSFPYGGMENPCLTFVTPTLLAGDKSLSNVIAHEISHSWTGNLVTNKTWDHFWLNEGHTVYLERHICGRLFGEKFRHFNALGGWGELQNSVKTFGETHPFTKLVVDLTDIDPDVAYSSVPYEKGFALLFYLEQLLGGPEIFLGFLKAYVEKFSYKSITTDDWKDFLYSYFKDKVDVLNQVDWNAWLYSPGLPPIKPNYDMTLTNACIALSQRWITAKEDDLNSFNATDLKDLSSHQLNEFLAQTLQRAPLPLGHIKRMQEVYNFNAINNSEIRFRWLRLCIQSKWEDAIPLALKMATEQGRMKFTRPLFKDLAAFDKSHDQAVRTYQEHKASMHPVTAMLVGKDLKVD
PROCEDURE_SUMMARY: In vitro assay testing inhibitory activity against purified recombinant human LTA4 hydrolase
Type: biochemical
EXPERIMENTAL_PARAMETERS: Table III; read-out: IC50 (μM) (hLTA4H)
Structures can show the parent of a compound that is named as a salt.

{"columns": ["COMPOUND", "OBSERVED_MEASUREMENT"],
 "data": [
  ["Clc1c2ccccc2nn1-c1ccc(OC[C@@H]2CCCN2)cc1 [Example 13, hydrochloride]", "< 5 µM"],
  ["O=C(O)CCCN1CCC[C@H]1COc1ccc(-n2nc3ccccc3c2Cl)cc1 [Example 19, Hydrochloride]", "< 5 µM"]
]}

Now for another entry.
(Q) // fetch human LTA4 hydrolase (Homo sapiens) IC50 for O=C(O)CN1CCC[C@@H]1COc1ccc(-n2nc3ccccc3c2Cl)cc1 [Example 15, Hydrochloride]
(A) < 5 µM

* * *

MEASUREMENT_TARGET: human LTA4 hydrolase (Homo sapiens, UniProt P09960)
Construct: A human LTA4 hydrolase full-length cDNA clone (NM_000895) was purchased; His tag (own knowledge: pDEST17 adds an N-terminal 6xHis); made in house; host or cells: Escherichia coli BL21-AI
Sequence (P09960 1-611): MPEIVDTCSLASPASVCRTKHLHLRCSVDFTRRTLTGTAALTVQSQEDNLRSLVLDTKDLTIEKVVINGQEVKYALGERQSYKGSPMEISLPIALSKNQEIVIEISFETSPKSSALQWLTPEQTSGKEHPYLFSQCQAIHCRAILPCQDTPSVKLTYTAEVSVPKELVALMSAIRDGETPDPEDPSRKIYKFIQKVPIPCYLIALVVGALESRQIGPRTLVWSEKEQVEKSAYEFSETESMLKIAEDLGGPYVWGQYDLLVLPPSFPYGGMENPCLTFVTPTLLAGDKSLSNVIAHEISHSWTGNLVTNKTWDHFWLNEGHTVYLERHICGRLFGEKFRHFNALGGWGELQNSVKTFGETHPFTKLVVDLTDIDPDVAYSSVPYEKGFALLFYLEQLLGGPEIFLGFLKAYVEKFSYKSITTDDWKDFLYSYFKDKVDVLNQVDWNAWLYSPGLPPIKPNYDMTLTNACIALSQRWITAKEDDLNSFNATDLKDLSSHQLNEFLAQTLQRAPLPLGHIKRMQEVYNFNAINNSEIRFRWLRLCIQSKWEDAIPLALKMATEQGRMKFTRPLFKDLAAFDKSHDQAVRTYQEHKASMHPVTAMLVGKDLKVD
PROCEDURE_SUMMARY: In vitro assay testing inhibitory activity against purified recombinant human LTA4 hydrolase
Assay type: biochemical
EXPERIMENTAL_PARAMETERS: Table V; read-out: hLTA4H Enzyme IC50
pIC50: −log10 of the molar value.
REPORTED_METRIC: pIC50

Example entries begin here.
{"columns": ["COMPOUND", "OBSERVED_MEASUREMENT"],
 "data": [
  ["CC1Cc2ccccc2N1c1ccc(OC[C@H]2CCCN2)cc1 (stereo partly drawn)", "< 4.70"],
  ["Cc1cn(-c2ccc(OC[C@H]3CCCN3)cc2)c2ccccc12", "< 4.70"],
  ["CN1CCC[C@@H]1COc1ccc(N2Cc3ccccc3C2)cc1", "4.70 to 5.30"]
]}

Respectfully, I request pIC50 for each entry included below.
1. c1ccc2c(c1)cnn2-c1ccc(OC[C@H]2CCCN2)cc1
2. O=C1c2ccccc2C(=O)N1c1ccc(OCCN2CCCCC2)cc1
3. O=C1c2ccccc2C(=O)N1c1ccc(OC[C@H]2CCCN2)cc1

(A)
4.70 to 5.30
> 5.30
> 5.30
